- Test system: E. faecalis ATCC 29212
- PROTOCOL DETAILS: direct antimicrobial activity (disc-diffusion, MIC, MBC)
- Format: cell-based
- SETUP CONDITIONS: Enterococcus faecalis, ATCC29212
QUANTITY NAME: MIC (mg/L)
Give bare numbers, in mg/L.

Okay, here is my list. What is MIC for each of these?
1. O=Cc1cc(F)ccc1B(O)O [7b]
2. OB(O)c1cc(Br)c(B(O)O)cc1Br [1i]
3. OB(O)c1cc(I)c(B(O)O)cc1I [1j]
4. OB(O)c1ccccc1B(O)O [3a, phenylene-1,2-diboronic acid]
5. OB(O)c1cc(F)c(B(O)O)cc1F [1e]
6. OB(O)c1ccc(B(O)O)s1 [5b]
7. OB(O)c1ccc(B(O)O)c(F)c1 [1b]
8. OB(O)c1cc(F)c(B(O)O)c(F)c1F [1f]

Out:
200
200
400
400
200
200
200
400

Okay, here is my list. What is MIC for each of these?
1. OB(O)c1c(F)c(F)c(F)c(F)c1B(O)O [3d]
2. OB(O)c1cc(B(O)O)c(B(O)O)s1 [5c, thiophene-2,3,5-triboronic acid]

Out:
200
200

Ref: paper PMC10648349
